Source: patent US20230073301A1

- method-notes: in vivo
- reported-conditions: pig, lung lymph node, intravenous, 175 mg/m^2
parameter-measured: concentration at 72 h

molecule-smiles: CC(=O)O[C@H]1C(=O)[C@@]2(C)[C@H]([C@H](OC(=O)c3ccccc3)[C@]3(O)C[C@H](OC(=O)[C@H](O)[C@@H](NC(=O)c4ccccc4)c4ccccc4)C(C)=C1C3(C)C)[C@]1(OC(C)=O)CO[C@@H]1C[C@@H]2O
assay-value: 4340 ng/g

----------
- method-notes: GMX001 colon tissue PTX concentration after systemic infusion
- Type: in vivo, porcine
- reported-conditions: pig, rectum, intravenous, 4.28 mg/kg/hr, Colon PTX concentration, 3 hour animal 19P0837

molecule-smiles: CC(=O)O[C@H]1C(=O)[C@@]2(C)[C@H]([C@H](OC(=O)c3ccccc3)[C@]3(O)C[C@H](OC(=O)[C@H](O)[C@@H](NC(=O)c4ccccc4)c4ccccc4)C(C)=C1C3(C)C)[C@]1(OC(C)=O)CO[C@@H]1C[C@@H]2O
measure-unit: ng/g
concentration at 3 h: 14400

----------
- method-notes: GMX001 plasma PTX concentration after systemic infusion (LC/MS)
- Assay type: in vivo, porcine
- reported-conditions: pig, iv, 175 mg/m2, systemic, 72 hour animal
parameter-measured: Cmax (µg/mL)

molecule-smiles: CC(=O)O[C@H]1C(=O)[C@@]2(C)[C@H]([C@H](OC(=O)c3ccccc3)[C@]3(O)C[C@H](OC(=O)[C@H](O)[C@@H](NC(=O)c4ccccc4)c4ccccc4)C(C)=C1C3(C)C)[C@]1(OC(C)=O)CO[C@@H]1C[C@@H]2O
assay-value: 67.1

----------
- method-notes: GMX001 colon tissue PTX concentration after systemic infusion
- Type: in vivo, porcine
- reported-conditions: pig, descending colon, intravenous, 4.28 mg/kg/hr, Colon PTX concentration, desc colon, 3 hour animal 19P0837
parameter-measured: concentration at 3 h (ng/g)

molecule-smiles: CC(=O)O[C@H]1C(=O)[C@@]2(C)[C@H]([C@H](OC(=O)c3ccccc3)[C@]3(O)C[C@H](OC(=O)[C@H](O)[C@@H](NC(=O)c4ccccc4)c4ccccc4)C(C)=C1C3(C)C)[C@]1(OC(C)=O)CO[C@@H]1C[C@@H]2O
measure-unit: ng/g
assay-value: 12500

----------
- method-notes: GMX002 lung tissue PTX concentration after local lung lavage
- Format: in vivo, porcine
- reported-conditions: pig, lung tissue, other: local lung lavage (right lung, via catheter), 32000 ng/mL (lavage solution), highest PTX level in lung tissue, local administration

molecule-smiles: CC(=O)O[C@H]1C(=O)[C@@]2(C)[C@H]([C@H](OC(=O)c3ccccc3)[C@]3(O)C[C@H](OC(=O)[C@H](O)[C@@H](NC(=O)c4ccccc4)c4ccccc4)C(C)=C1C3(C)C)[C@]1(OC(C)=O)CO[C@@H]1C[C@@H]2O
concentration at 20 min [ng/g]: 38400

----------
- method-notes: GMX001 plasma PTX concentration after systemic infusion (LC/MS)
- Type: in vivo, porcine
- reported-conditions: pig, intravenous, 175 mg/m^2, Blood PTX concentration, systemic infusion, animal 19P0997, 8 hr
parameter-measured: concentration at 8 h (ng/mL)

molecule-smiles: CC(=O)O[C@H]1C(=O)[C@@]2(C)[C@H]([C@H](OC(=O)c3ccccc3)[C@]3(O)C[C@H](OC(=O)[C@H](O)[C@@H](NC(=O)c4ccccc4)c4ccccc4)C(C)=C1C3(C)C)[C@]1(OC(C)=O)CO[C@@H]1C[C@@H]2O
measure-unit: ng/mL
assay-value: 27100
